PARAMETER MEASURED: CH4 permeability (Barrer)

*Oc1ccc(C(=O)c2cccc(-c3cccc(C(=O)c4ccc(Oc5ccc(C(c6ccc(*)cc6)(C(F)(F)F)C(F)(F)F)cc5)cc4)c3)c2)cc1 (repeat unit) = 0.058
*/C=C/C1CCC(*)C1 (repeat unit) = 2.5

P: *Oc1c(C)cc(-c2cc(C)c(Oc3ccc(S(=O)(=O)c4ccc(*)cc4)cc3)c(C)c2)cc1C (repeat unit)
Q: *Oc1cc2c(cc1O*)C1(CC2(C)C)CC(C)(C)c2cc3c(cc21)Oc1c(CN)c(*)c(*)c(CN)c1O3 (repeat unit)
R: *c1ccc(Oc2ccc(-n3c(=O)c4cc5c(=O)n(*)c(=O)c5cc4c3=O)cc2)cc1 (repeat unit)
S: *c1cc(C)c(C)c(N2C(=O)c3ccc(Oc4cc(C)c(Oc5ccc6c(c5)C(=O)N(*)C6=O)c(C)c4C)cc3C2=O)c1C (repeat unit)
T: *Oc1ccc(S(=O)(=O)c2ccc(Oc3c(C)cc(C(C)(C)c4cc(C)c(*)c(C)c4)cc3C)cc2)cc1 (repeat unit)
[ask] Would you mind ranking these compounds by ascending CH4 permeability? Give the labels in the order requested.
[reply] R, T, P, S, Q
(R: 0.0682 Barrer, T: 0.522 Barrer, P: 0.925 Barrer, S: 4 Barrer, Q: 257 Barrer)
